TARGET: Histamine H2 receptor (Homo sapiens); further: assay procedure not described here
Sequence (P25021 whole entry): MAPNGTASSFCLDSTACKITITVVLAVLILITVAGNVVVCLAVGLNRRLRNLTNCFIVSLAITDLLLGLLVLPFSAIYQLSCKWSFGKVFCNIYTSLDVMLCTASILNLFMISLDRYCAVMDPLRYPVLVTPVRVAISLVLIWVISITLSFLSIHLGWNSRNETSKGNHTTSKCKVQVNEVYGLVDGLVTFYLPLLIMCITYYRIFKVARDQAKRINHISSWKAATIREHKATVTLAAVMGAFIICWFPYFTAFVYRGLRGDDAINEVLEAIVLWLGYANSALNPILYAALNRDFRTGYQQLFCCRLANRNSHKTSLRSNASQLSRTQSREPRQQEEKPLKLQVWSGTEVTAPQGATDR
Assay type: functional, cell-based
PARAMETER: AC50

> print(dat)
                                    molecule  assay.result
 1  Cc1ccc(S(=O)(=O)NC(=O)NN2CC3CCCC3C2)cc1 (configuration not stated) [GLICLAZIDE]       > 30 µM
 2  O=C(O[C@H]1C[C@H]2CC[C@@H](C1)[N+]21CCCC1)C(O)(c1ccccc1)c1ccccc1 [TROSPIUM]       > 30 µM
 3  CCC(C(=O)O)c1ccc(N2Cc3ccccc3C2=O)cc1 (configuration not stated) [INDOBUFEN]       > 30 µM
 4  Cc1cn([C@H]2C[C@H](N=[N+]=[N-])[C@@H](CO)O2)c(=O)[nH]c1=O [ZIDOVUDINE]       > 10 µM
 5  C=CCN1CCCC1CNC(=O)c1cc(S(N)(=O)=O)cc(OC)c1OC (configuration not stated) [VERALIPRIDE]       > 30 µM
 6  Nc1nc(Cl)nc2c1ncn2[C@H]1C[C@H](O)[C@@H](CO)O1 [CLADRIBINE]       > 30 µM
 7                   CC=CC(=O)N(CC)c1ccccc1C       > 10 µM
 8  CC1(C)O[C@@H]2C[C@H]3[C@@H]4CCC5=CC(=O)C=C[C@]5(C)[C@H]4[C@@H](O)C[C@]3(C)[C@]2(C(=O)CO)O1 [DESONIDE]       > 10 µM
 9  C=CCN1C[C@H](C(=O)N(CCCN(C)C)C(=O)NCC)C[C@@H]2c3cccc4[nH]cc(c34)C[C@H]21 [CABERGOLINE]       4.23 µM
10  CC(C)(C)C(=O)Oc1ccc(S(=O)(=O)Nc2ccccc2C(=O)NCC(=O)O)cc1       > 30 µM
11  CN(C)CC/C=C1\c2ccccc2CSc2ccccc21 [DOTHIEPIN]       > 30 µM
12  CCN1CCN(C(=O)N[C@@H](C(=O)N[C@@H]2C(=O)N3C(C(=O)O)=C(CSc4nnnn4C)CS[C@H]23)c2ccc(O)cc2)C(=O)C1=O [CEFOPERAZONE]       > 30 µM

---

TARGET: Gamma-aminobutyric acid receptor subunit alpha-1 (Rattus norvegicus, UniProt P62813); further: assay procedure not described here
Sequence (P62813 whole entry): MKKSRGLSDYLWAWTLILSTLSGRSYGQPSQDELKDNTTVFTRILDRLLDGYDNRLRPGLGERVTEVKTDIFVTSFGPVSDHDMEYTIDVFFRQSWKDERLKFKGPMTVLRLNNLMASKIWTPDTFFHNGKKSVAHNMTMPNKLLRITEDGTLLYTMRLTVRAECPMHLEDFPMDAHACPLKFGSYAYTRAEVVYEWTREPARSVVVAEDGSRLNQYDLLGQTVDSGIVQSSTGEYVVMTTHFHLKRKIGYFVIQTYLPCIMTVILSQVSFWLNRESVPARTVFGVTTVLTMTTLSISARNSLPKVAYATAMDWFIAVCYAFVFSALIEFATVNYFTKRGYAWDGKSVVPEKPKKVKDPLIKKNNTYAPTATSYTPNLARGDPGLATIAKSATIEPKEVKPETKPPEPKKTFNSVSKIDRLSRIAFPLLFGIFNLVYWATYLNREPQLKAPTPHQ
Format: functional
PARAMETER: AC50

> print(dat)
                                   compound  assay.result
1  CCOc1ccccc1OCC1CNCCO1 (centres undefined)       > 10 µM
2  COc1ccc(CCNCC(O)COc2cccc(C)c2)cc1OC (centres undefined)       > 10 µM
3  O=P1(NCCCl)OCCCN1CCCl (centres undefined) [IFOSFAMIDE]       > 30 µM
4  C[C@]1(O)CC[C@H]2[C@@H]3CCC4=CC(=O)CC[C@]4(C)[C@@]3(F)[C@@H](O)C[C@@]21C       > 10 µM

---

Here's what we have: AC50 numbers for B2 bradykinin receptor (Homo sapiens).

COMPOUND	AC50
CC(C)(C)NCC(O)COc1cccc2c1CCC(=O)N2 (configuration not stated) [CARTEOLOL]	> 10 µM
C=CCN1CCCC1CNC(=O)c1cc(S(N)(=O)=O)cc(OC)c1OC (configuration not stated) [VERALIPRIDE]	> 30 µM
COc1ccc(CCNCC(O)COc2cccc(C)c2)cc1OC (configuration not stated) [BEVANTOLOL]	> 10 µM
CC1(C)O[C@@H]2C[C@H]3[C@@H]4CCC5=CC(=O)C=C[C@]5(C)[C@H]4[C@@H](O)C[C@]3(C)[C@]2(C(=O)CO)O1 [DESONIDE]	> 10 µM
C=CCN1C[C@H](C(=O)N(CCCN(C)C)C(=O)NCC)C[C@@H]2c3cccc4[nH]cc(c34)C[C@H]21 [CABERGOLINE]	> 10 µM
Cn1nnc2c(C(N)=O)ncn2c1=O [TEMOZOLOMIDE]	> 30 µM
O=C(NCCNCC(O)COc1ccc(O)cc1)N1CCOCC1 (configuration not stated) [XAMOTEROL]	> 30 µM
CCCN(CCC)C(=O)C(CCC(=O)O)NC(=O)c1ccccc1 (configuration not stated) [PROGLUMIDE]	> 30 µM
CN1C(=O)CCS(=O)(=O)C1c1ccc(Cl)cc1 (configuration not stated) [CHLORMEZANONE]	> 10 µM
O=C(O)/C=C/c1ccc(Cn2ccnc2)cc1 [OZAGREL]	> 30 µM
CO/N=C(\C(=O)N[C@@H]1C(=O)N2C(C(=O)O)=C(CSc3nnnn3C)CS[C@H]12)c1csc(N)n1 [CEFMENOXIME]	> 30 µM
CO[C@@H]1[C@@H](O[C@@H]2O[C@H](C)[C@@H](O[C@H]3C[C@@](C)(O)[C@@H](OC(=O)CC(C)C)[C@H](C)O3)[C@H](N(C)C)[C@H]2O)[C@@H](CC=O)C[C@@H](C)[C@@H](O)/C=C/C=C/C[C@@H](C)OC(=O)C[C@H]1OC(C)=O [JOSAMYCIN]	> 10 µM
CC(C)C(=O)c1c(C(C)C)nn2ccccc12 [IBUDILAST]	> 30 µM
CC[C@H]1CN2CCc3cc(OC)c(OC)cc3[C@@H]2C[C@@H]1C[C@H]1NCCc2cc(OC)c(OC)cc21 [EMETINE]	> 30 µM
C=CCC1(CC(C)C)C(=O)NC(=O)NC1=O [BUTALBITAL]	> 10 µM
CC(C)C[C@H]1C(=O)N2CCC[C@H]2[C@]2(O)O[C@](NC(=O)[C@@H]3C=C4c5cccc6[nH]c(Br)c(c56)C[C@H]4N(C)C3)(C(C)C)C(=O)N12 [BROMOCRIPTINE]	> 30 µM
CCOC(=O)[N-]c1cn(N2CCOCC2)n[o+]1 [MOLSIDOMINE]	> 30 µM
Cn1c(=O)c2c(ncn2CC2OCCO2)n(C)c1=O [DOXOFYLLINE]	> 30 µM
CCN(CC)C(=O)N[C@H]1C[C@@H]2c3cccc4[nH]cc(c34)C[C@H]2N(C)C1 [TERGURIDE]	> 30 µM
C[N+]1(C)CCC(OC(=O)C(O)(c2ccccc2)C2CCCC2)C1 (configuration not stated) [GLYCOPYRRONIUM BROMIDE]	> 30 µM
Cc1cn([C@H]2C=C[C@@H](CO)O2)c(=O)[nH]c1=O [STAVUDINE]	> 30 µM
CN(C)CCc1c[nH]c2ccc(C[C@H]3COC(=O)N3)cc12 [ZOLMITRIPTAN]	> 30 µM
COc1ccc(CCN(C)CCCC(C#N)(c2cc(OC)c(OC)c(OC)c2)C(C)C)cc1OC (configuration not stated) [GALLOPAMIL]	> 30 µM
Cc1c(C(=O)NN2CCCCC2)nn(-c2ccc(Cl)cc2Cl)c1-c1ccc(Cl)cc1 [RIMONABANT]	> 30 µM
CCOC(=O)OC(C)OC1=C(C(=O)Nc2ccccn2)N(C)S(=O)(=O)c2ccccc21 (configuration not stated) [AMPIROXICAM]	> 30 µM
CN1CCC(=C2c3ccccc3CCc3sccc32)CC1 [PIZOTYLINE]	> 30 µM
CO[C@H]1C[C@@H]2CC[C@@H](C)[C@@](O)(O2)C(=O)C(=O)N2CCCC[C@H]2C(=O)O[C@H]([C@H](C)C[C@@H]2CC[C@@H](O)[C@H](OC)C2)CC(=O)[C@H](C)/C=C(\C)[C@@H](O)[C@@H](OC)C(=O)[C@H](C)C[C@H](C)/C=C/C=C/C=C/1C [SIROLIMUS]	> 30 µM

---

// reported AC50 for each item listed
TARGET: Prostaglandin G/H synthase 1 (Homo sapiens); further: assay procedure not described here
Sequence (P23219 whole entry): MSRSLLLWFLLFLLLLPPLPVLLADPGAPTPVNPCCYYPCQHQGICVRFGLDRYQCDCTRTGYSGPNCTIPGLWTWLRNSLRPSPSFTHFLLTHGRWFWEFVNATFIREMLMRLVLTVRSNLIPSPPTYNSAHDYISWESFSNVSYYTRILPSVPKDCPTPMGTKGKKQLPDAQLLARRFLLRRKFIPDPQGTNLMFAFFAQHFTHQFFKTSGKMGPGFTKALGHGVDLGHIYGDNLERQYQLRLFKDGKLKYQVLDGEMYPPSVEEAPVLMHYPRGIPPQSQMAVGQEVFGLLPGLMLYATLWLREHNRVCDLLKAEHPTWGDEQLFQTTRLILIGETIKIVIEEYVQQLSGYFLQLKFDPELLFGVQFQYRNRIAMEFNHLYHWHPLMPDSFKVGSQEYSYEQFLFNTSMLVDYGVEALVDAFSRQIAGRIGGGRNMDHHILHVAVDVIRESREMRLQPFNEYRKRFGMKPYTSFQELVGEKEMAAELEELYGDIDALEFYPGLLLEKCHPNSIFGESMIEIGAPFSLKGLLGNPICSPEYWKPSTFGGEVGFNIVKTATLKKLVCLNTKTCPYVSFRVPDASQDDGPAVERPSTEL
Assay type: functional
PARAMETER: AC50

COMPOUND	ASSAY_RESULT
Cc1cc(C#N)cc(C)c1Oc1nc(Nc2ccc(C#N)cc2)nc(N)c1Br [ETRAVIRINE]	14.4 µM
CC(C)(C)CC(C)(C)c1ccc(O)c(Cc2ccc(Cl)cc2Cl)c1 [CLOFOCTOL]	29.2 µM
C=CCc1ccccc1OCC(O)CNC(C)C (stereo not given) [ALPRENOLOL]	> 0.3 µM
Cc1cc(OP(=O)(O)O)c2ccccc2c1OP(=O)(O)O [MENADIOL SODIUM DIPHOSPHATE]	> 30 µM
CC(=O)OCC1=C(C(=O)O)N2C(=O)[C@@H](NC(=O)[C@H](N)c3ccccc3)[C@H]2SC1 [CEPHALOGLYCIN]	26.5 µM
Oc1c(Cl)cc(Cl)c2cccnc12 [CHLOROXINE]	> 30 µM
CC(C)(C)NC[C@H](O)COc1ccccc1C1CCCC1 [PENBUTOLOL]	26.4 µM
CC[N+]1(C)[C@@H]2CC(OC(=O)[C@H](CO)c3ccccc3)C[C@H]1[C@@H]1O[C@@H]12 (stereo not given in full) [OXITROPIUM]	> 30 µM
CN(C)S(=O)(=O)c1ccc2c(c1)N(CCCN1CCC(CCO)CC1)c1ccccc1S2 [PIPOTIAZINE]	> 30 µM
OB1OCc2cc(F)ccc21 [TAVABOROLE]	> 30 µM
CN(C)CCn1nnnc1SCC1=C(C(=O)O)N2C(=O)[C@@H](NC(=O)Cc3csc(N)n3)[C@H]2SC1 [CEFOTIAM]	> 30 µM
O=C(Oc1ccc2c(c1)CCCN2C(=O)C(Cl)Cl)c1ccco1 [QUINFAMIDE]	> 30 µM
Clc1cc(Cl)c(OCC#CI)cc1Cl [HALOPROGIN]	> 30 µM
CC[C@@H](C(N)=O)N1CCCC1=O	> 30 µM
CC(=O)OCC(=O)[C@@]1(O)CC[C@H]2[C@@H]3CCC4=CC(=O)C=C[C@]4(C)[C@@]3(Cl)[C@@H](Cl)C[C@@]21C [DICHLORISONE ACETATE]	> 30 µM
Nc1ccc(S(=O)(=O)c2cnc(N)s2)cc1 [THIAZOLSULFONE]	> 30 µM
CC(C)(C)C(=O)OCOC(=O)[C@@H]1N2C(=O)[C@@H](NC(=O)[C@H](N)c3ccccc3)[C@H]2SC1(C)C [PIVAMPICILLIN]	> 30 µM
CCCC1O[C@@H]2C[C@H]3[C@@H]4CCC5=CC(=O)C=C[C@]5(C)[C@H]4[C@@H](O)C[C@]3(C)[C@]2(C(=O)CO)O1 (stereo not given in full) [BUDESONIDE]	> 30 µM
CCOc1ccc(Cc2cc([C@@H]3O[C@H](CO)[C@@H](O)[C@H](O)[C@H]3O)ccc2Cl)cc1 [DAPAGLIFLOZIN]	> 30 µM
O=C(O)c1cc(O)ccc1O [GENTISIC ACID]	> 30 µM
COc1cc2nc(N3CCN(C(=O)c4ccco4)CC3)nc(N)c2cc1OC [PRAZOSIN]	> 30 µM
CCOC(=O)[C@H](CCc1ccccc1)N[C@@H](C)C(=O)N1[C@H](C(=O)O)C[C@H]2CCCC[C@@H]21 [TRANDOLAPRIL]	> 30 µM
NC(=O)C[C@H](N)C(=O)O [ASPARAGINE]	> 30 µM
CCCCCCOc1nsnc1C1=CCCN(C)C1 [XANOMELINE]	> 30 µM
Cc1cn([C@H]2C=C[C@@H](CO)O2)c(=O)[nH]c1=O [STAVUDINE]	> 30 µM
